Test system: Staphylococcus sp.
testDetails: in vitro antibacterial evaluation, MIC by broth dilution
Format: cell-based
conditionNotes: broth dilution, 18 hours at 35° C.; strain GC 1131
# MIC Staphylococcus aureus (GC 1131) values compiled below
propertyName: MIC Staphylococcus aureus (GC 1131) (µg/mL)

[[record]]
molecule = "CC(c1ccccc1)C1NC(=O)CNC(=O)C(CO[Si](C)(C)C(C)(C)C)NC(=O)C(C(O)C2CNC(=N)N2C2OC3COC(C)(C)OC3C3OC(C)(C)OC32)NC(=O)C(C(O)C2CNC(=N)N2)NC(=O)C(Cc2ccc(O)cc2)NC1=O (stereo not shown)"
targetentity = "Staphylococcus sp."
propertyname = "MIC Staphylococcus aureus (GC 1131)"
prefixoperator = "="
value = 32

[[record]]
molecule = "CC(c1ccccc1)C1NC(=O)CNC(=O)C(CO)NC(=O)C(C(O)C2CNC(=N)N2C2OC(CO)C(O)C(O)C2O)NC(=O)C(C(O)C2CNC(=N)N2)NC(=O)C(Cc2ccc(OC3OC(CO)C(OC4OC(CO)C(O)C(O)C4O)C(O)C3O)c(N)c2)NC1=O (stereo not shown)"
targetentity = "Staphylococcus sp."
propertyname = "MIC Staphylococcus aureus (GC 1131)"
prefixoperator = ">"
value = 64

[[record]]
molecule = "CCCCCNC(=O)OC1C(CO)OC(OC2C(CO)OC(Oc3ccc(CC4NC(=O)C(C(C)c5ccccc5)NC(=O)CNC(=O)C(CO)NC(=O)C(C(O)C5CNC(=N)N5C5OC(CO)C(O)C(O)C5O)NC(=O)C(C(O)C5CNC(=N)N5)NC4=O)cc3)C(O)C2O)C(O)C1O (stereo not shown)"
targetentity = "Staphylococcus sp."
propertyname = "MIC Staphylococcus aureus (GC 1131)"
prefixoperator = ">"
value = 64

[[record]]
molecule = "COc1ccc(COCC2OC(OC3C(CO)OC(Oc4ccc(CC5NC(=O)C(C(C)c6ccccc6)NC(=O)CNC(=O)C(CO)NC(=O)C(C(O)C6CNC(=N)N6C6OC(CO)C(O)C(O)C6O)NC(=O)C(C(O)C6CNC(=N)N6)NC5=O)cc4)C(O)C3O)C(O)C(O)C2O)cc1F (stereo not shown)"
targetentity = "Staphylococcus sp."
propertyname = "MIC Staphylococcus aureus (GC 1131)"
prefixoperator = "="
value = 4


====

System: Enterococcus sp.
testDetails: in vitro antibacterial evaluation, MIC by broth dilution
Format: cell-based
conditionNotes: broth dilution, inoculum 5×10^5 CFU/mL, 18 hours at 35° C.; strain GC 4558
From the text: Methods for in vitro Antibacterial Evaluation (Table 1) […]
Entries and their MIC Enterococcus avium (GC 4558) values follow.
propertyName: MIC Enterococcus avium (GC 4558) (mg/L)

[[record]]
molecule = "CC(c1ccccc1)C1NC(=O)CNC(=O)C(CO)NC(=O)C(C(O)C2CNC(=N)N2C2OC(CO)C(O)C(O)C2O)NC(=O)C(C(O)C2CNC(=N)N2)NC(=O)C(Cc2ccc(OC3OC(CO)C(OC4OC5COC6(CC7CCC6(C)C7(C)C)OC5C(O)C4O)C(O)C3O)cc2)NC1=O (stereo not drawn) [Example 215]"
propertyname = "MIC Enterococcus avium (GC 4558)"
measurementunits = "mg/L"
prefixoperator = "="
value = 0.5

[[record]]
molecule = "CCCCN1CC(C(O)C2NC(=O)C(C(O)C3CNC(=N)N3)NC(=O)C(Cc3ccc(OC4OC(CO)C(OC5OC6COC7(OC6C(O)C5O)C5CC6CC(C5)CC7C6)C(O)C4O)cc3)NC(=O)C(C(C)c3ccccc3)NC(=O)CNC(=O)C(CO)NC2=O)N(C2OC(CO)C(O)C(O)C2O)C1=N (stereo not drawn) [Example 224]"
propertyname = "MIC Enterococcus avium (GC 4558)"
measurementunits = "mg/L"
prefixoperator = "="
value = 2

[[record]]
molecule = "CC(c1ccc(Cl)cc1)C1NC(=O)CNC(=O)C(CO)NC(=O)C(C(O)C2CNC(=N)N2C2OC(CO)C(O)C(O)C2O)NC(=O)C(C(O)C2CNC(=N)N2)NC(=O)C(Cc2ccc(OC3OC(CO)C(OC4OC5COC(c6ccccc6)OC5C(O)C4O)C(O)C3O)cc2)NC1=O (stereo not drawn) [Example 195]"
propertyname = "MIC Enterococcus avium (GC 4558)"
measurementunits = "mg/L"
prefixoperator = "="
value = 0.5

[[record]]
molecule = "COc1cc(C2OCC3OC(OC4C(CO)OC(Oc5ccc(CC6NC(=O)C(C(C)c7ccccc7)NC(=O)CNC(=O)C(CO)NC(=O)C(C(O)C7CNC(=N)N7C7OC(CO)C(O)C(O)C7O)NC(=O)C(C(O)C7CNC(=N)N7)NC6=O)cc5)C(O)C4O)C(O)C(O)C3O2)cc([N+](=O)[O-])c1O (stereo not drawn) [Example 169]"
propertyname = "MIC Enterococcus avium (GC 4558)"
measurementunits = "mg/L"
prefixoperator = ">"
value = 64

[[record]]
molecule = "COc1ccc2cc(COC3C(OC4C(CO)OC(Oc5ccc(CC6NC(=O)C(C(C)c7ccccc7)NC(=O)CNC(=O)C(CO)NC(=O)C(C(O)C7CNC(=N)N7C7OC(CO)C(O)C(O)C7O)NC(=O)C(C(O)C7CNC(=N)N7)NC6=O)cc5)C(O)C4O)OC(CO)C(O)C3O)ccc2c1 (stereo not drawn) [Example 230c]"
propertyname = "MIC Enterococcus avium (GC 4558)"
measurementunits = "mg/L"
prefixoperator = "="
value = 128


====

Test system: Streptococcus sp.
testDetails: in vitro antibacterial evaluation, MIC by broth dilution
Type: cell-based
conditionNotes: broth dilution, inoculum 5×10^5 CFU/mL, 18 hours at 35° C.; strain GC 1894
MIC Streptococcus pneumoniae (GC 1894) values for the compounds below.
propertyName: MIC Streptococcus pneumoniae (GC 1894) (µg/mL)

[[record]]
compound = "CC(c1ccccc1)C1NC(=O)CNC(=O)C(CO)NC(=O)C(C(O)C2CNC(=N)N2C2OC(CO)C(O)C(O)C2O)NC(=O)C(C(O)C2CNC(=N)N2)NC(=O)C(Cc2ccc(OC3OC(CO)C(OC4OC5COC6(CCCCCCCCCCC6)OC5C(O)C4O)C(O)C3O)cc2)NC1=O (stereo not shown) [Example 209]"
prefixoperator = "<"
value = 0.06

[[record]]
compound = "CCOc1cc(C2OCC3OC(OC4C(CO)OC(Oc5ccc(CC6NC(=O)C(C(C)c7ccccc7)NC(=O)CNC(=O)C(CO)NC(=O)C(C(O)C7CNC(=N)N7C7OC(CO)C(O)C(O)C7O)NC(=O)C(C(O)C7CNC(=N)N7)NC6=O)cc5)C(O)C4O)C(O)C(O)C3O2)ccc1[N+](=O)[O-] (stereo not shown) [Example 167]"
prefixoperator = "="
value = 0.25

[[record]]
compound = "Cc1ccc(Oc2cccc(C3OCC4OC(OC5C(CO)OC(Oc6ccc(CC7NC(=O)C(C(C)c8ccccc8)NC(=O)CNC(=O)C(CO)NC(=O)C(C(O)C8CNC(=N)N8C8OC(CO)C(O)C(O)C8O)NC(=O)C(C(O)C8CNC(=N)N8)NC7=O)cc6I)C(O)C5O)C(O)C(O)C4O3)c2)cc1 (stereo not shown) [Example 197]"
prefixoperator = "="
value = 8

[[record]]
compound = "CC(c1ccccc1)C1NC(=O)CNC(=O)C(CO)NC(=O)C(C(O)C2CNC(=N)N2C2OC(CO)C(O)C(O)C2O)NC(=O)C(C(O)C2CNC(=N)N2)NC(=O)C(Cc2ccc(OC3OC(CO)C(OC4OC(CO)C(O)C5OC(c6ccc(-c7ccsc7)cc6)OC45)C(O)C3O)cc2)NC1=O (stereo not shown) [Example 164a]"
prefixoperator = "="
value = 0.25


====

Known MIC Coagulase Negative Staphylococcus (GC 4547) of a selection of molecules
Test system: Staphylococcus sp.
testDetails: in vitro antibacterial evaluation, MIC by broth dilution
Type: cell-based
conditionNotes: strain GC 4547; broth dilution, 18 hours at 35° C.
propertyName: MIC Coagulase Negative Staphylococcus (GC 4547)

[[record]]
molecule = "CC(c1ccccc1)C1NC(=O)CNC(=O)C(CO)NC(=O)C(C(O)C2CN(Cc3ccccc3)C(=NCc3ccccc3)N2C2OC(CO)C(O)C(O)C2O)NC(=O)C(C(O)C2CN(Cc3ccccc3)C(=NCc3ccccc3)N2Cc2ccccc2)NC(=O)C(Cc2ccc(OC3OC(CO)C(OC4OC(CO)C(O)C(O)C4O)C(O)C3O)cc2)NC1=O (centres unmarked) [Example 62]"
targetentity = "Staphylococcus sp."
value = ">128 µg/mL"

[[record]]
molecule = "Cc1ccc(Oc2ccc(C3OCC4OC(OC5C(CO)OC(Oc6ccc(CC7NC(=O)C(C(C)c8ccccc8)NC(=O)CNC(=O)C(CO)NC(=O)C(C(O)C8CNC(=N)N8C8OC(CO)C(O)C(O)C8O)NC(=O)C(C(O)C8CNC(=N)N8)NC7=O)cc6)C(O)C5O)C(O)C(O)C4O3)cc2)cc1 (centres unmarked) [Example 174]"
targetentity = "Staphylococcus sp."
value = "2 µg/mL"


====

Tested on: Staphylococcus sp.
testDetails: in vitro antibacterial evaluation, MIC by broth dilution
Assay type: cell-based
conditionNotes: broth dilution, 18 hours at 35° C.
propertyName: MIC Staphylococcus aureus (GC 1131) (mg/L)

[[record]]
compound = "CC(c1ccccc1)C1NC(=O)CNC(=O)C(CO)NC(=O)C(C(O)C2CNC(=N)N2C2OC(CO)C(O)C(O)C2O)NC(=O)C(C(O)C2CNC(=N)N2)NC(=O)C(Cc2ccc(OC3OC(CO)C(OC4OC(COCC=Cc5ccc(N(C)C)cc5)C(O)C(O)C4O)C(O)C3O)cc2)NC1=O (stereo not shown) [Example 243]"
propertyname = "MIC Staphylococcus aureus (GC 1131)"
prefixoperator = "="
value = 64

[[record]]
compound = "CCCC(C)C1OCC2OC(OC3C(CO)OC(Oc4ccc(CC5NC(=O)C(C(C)c6ccccc6)NC(=O)CNC(=O)C(CO)NC(=O)C(C(O)C6CNC(=N)N6C6OC(CO)C(O)C(O)C6O)NC(=O)C(C(O)C6CNC(=N)N6)NC5=O)cc4)C(O)C3O)C(O)C(O)C2O1 (stereo not shown) [Example 111]"
propertyname = "MIC Staphylococcus aureus (GC 1131)"
prefixoperator = "="
value = 1

[[record]]
compound = "CC(c1ccccc1)C1NC(=O)CNC(=O)C(CO)NC(=O)C(C(O)C2CNC(=N)N2C2OC(CO)C(O)C3OC(C)(C)OC32)NC(=O)C(C(O)C2CNC(=N)N2)NC(=O)C(Cc2ccc(OC3OC(CO)C(OC4OC(CO)C(O)C5OC(C)(C)OC45)C4OC(C)(C)OC34)cc2)NC1=O (stereo not shown) [Example 229a]"
propertyname = "MIC Staphylococcus aureus (GC 1131)"
prefixoperator = ">"
value = 128

[[record]]
compound = "COc1ccc2cc(COC3C(CO)OC(OC4C(CO)OC(Oc5ccc(CC6NC(=O)C(C(C)c7ccccc7)NC(=O)CNC(=O)C(CO)NC(=O)C(CC7CNC(=N)N7C7OC(CO)C(O)C(O)C7O)NC(=O)C(CC7CNC(=N)N7)NC6=O)cc5)C(O)C4O)C(O)C3O)ccc2c1 (stereo not shown) [Example 245a]"
propertyname = "MIC Staphylococcus aureus (GC 1131)"
prefixoperator = "="
value = 4

[[record]]
compound = "CC(C)CC(=O)OC1C(O)C(CO)OC(OC2C(CO)OC(Oc3ccc(CC4NC(=O)C(C(C)c5cccs5)NC(=O)CNC(=O)C(CO)NC(=O)C(C(O)C5CNC(=N)N5C5OC(CO)C(O)C(O)C5O)NC(=O)C(C(O)C5CNC(=N)N5)NC4=O)cc3)C(O)C2O)C1O (stereo not shown) [Example 265b]"
propertyname = "MIC Staphylococcus aureus (GC 1131)"
prefixoperator = "="
value = 32

[[record]]
compound = "CC(c1ccccc1)C1NC(=O)CNC(=O)C(CO)NC(=O)C(C(O)C2CNC(=N)N2C2OC(CO)C(O)C(O)C2O)NC(=O)C(C(O)C2CNC(=N)N2)NC(=O)C(Cc2ccc(OC3OC(CO)C(OC4OC(CO)C(O)C(OCc5ccc(OCc6ccccc6)cc5)C4O)C(O)C3O)cc2)NC1=O (stereo not shown) [Example 231c]"
propertyname = "MIC Staphylococcus aureus (GC 1131)"
prefixoperator = "="
value = 2

[[record]]
compound = "CC(c1ccccc1)C1NC(=O)CNC(=O)C(CO)NC(=O)C(C(O)C2CNC(=N)N2C2OC(CO)C(O)C(O)C2O)NC(=O)C(C(O)C2CNC(=N)N2)NC(=O)C(Cc2ccc(OC3OC(CO)C(OC4OC(COC(=O)NCc5ccccc5)C(O)C(O)C4O)C(O)C3O)cc2)NC1=O (stereo not shown) [Example 257b]"
propertyname = "MIC Staphylococcus aureus (GC 1131)"
prefixoperator = "="
value = 0.5

